- experimental.system: 5α-reductase
- method.summary: 5α-reductase inhibitory activity in vitro
- test.conditions: male rats' prostate enzyme, [4-C14]-testosterone, NADPH, 60 mins at 37° C., pH 7.4
quantity.name: IC50 (µM)

Recorded results for 2 compounds are shown here.
[
  {
    "smiles.notation": "CC(C)Cc1ccc(COc2ccc(C(=O)Nc3ccccc3OCCCC(=O)O)c3c2CCC3)cc1",
    "result.number": 0.41
  },
  {
    "smiles.notation": "Cc1c(OC(c2ccccc2)c2ccccc2)ccc(C(=O)Nc2ccccc2OCCCC(=O)O)c1C",
    "result.number": 0.2
  }
]

(A) CCc1ccc(COc2ccc(C(=O)Nc3ccccc3OCCCC(=O)O)c(C)c2C)cc1
(B) CC(C)Cc1ccc(COc2ccc(C(=O)Nc3ccccc3OCCCC(=O)O)c3ccccc23)cc1
Identify the entry with the smaller IC50: A or B . Respond using the label that marks the chosen record. A
(A: 0.27 µM, B: 0.52 µM)
